Cited source for all entries: patent US6534524B1

Below is a list of entries, each paired with its recorded Cmax value.
assay comment: Determination of inhibitor concentration in mouse plasma after intraperitoneal and oral dosing
Type: in vivo
condition label: female, PO, 50 mg/kg, vehicle PEG400:H2O pH 2.3 30:70, read-out: Cmax

Query: Form field: reported Cmax of CCCn1nc(C)cc1C(=O)Nc1cccc(C(=O)c2ccc3c(/C=C/c4ccccn4)n[nH]c3c2)c1 [Example 41(r)]
Response: > 5000 ng/mL

Alright, here's another molecule for you.
Query: Form field: reported Cmax of O=C(NCC1CC1)c1ccccc1Sc1ccc2c(/C=C/c3ccccn3)n[nH]c2c1 [Example 35(v)]
Response: > 2000 ng/mL
